I'd be grateful if you could share measured % of Cysteine depletion, Rep 3 for these entries.
Tested on: cysteine peptide (Ac-RFAACAA-COOH)
Assay: Direct Peptide Reactivity Assay, cysteine peptide
Details: 20 min; 1:10
Procedure: For cysteine DPRA, an additional step was performed. The mass spectrometric analysis was performed by use of a AB SCIEX QTRAP 5500 tandem mass spectrometry (MS/MS) system (AB SCIEX, Framingham, Mass., USA) operating in triple quadrupole positive mode (ESI+) equipped with an AB Sciex Turbo Ion Spray interface. Acquisition and analysis of data were performed with Analyst software ver. 1.6.2 (Applied Biosystems).
Give just the number in %; leave the unit off.

Given the entry Nc1ccc(Nc2ccc(N)cc2)cc1 [PPD derivative 1, 4,4′-Diaminodiphenylamine] , report its measured % of Cysteine depletion, Rep 3. 41.5

Given the entry CCCCC(CC)COc1cc(N)ccc1N (centres unmarked) [PPD derivative 3, 2-((2-ethylhexyl)oxy)benzene-1,4-diamine] , report its measured % of Cysteine depletion, Rep 3. 31.4

Given the entry CCCCCCOc1cc(Nc2ccc(N)cc2)ccc1N [PPD derivative 5] , report its measured % of Cysteine depletion, Rep 3. 49.9

Given the entry OC[C@H]1O[C@@H](O[C@H]2[C@H](O)[C@@H](O)C(O)O[C@@H]2CO)[C@H](O)[C@@H](O)[C@H]1O (some centres unmarked) [Lactose, reference compound] , report its measured % of Cysteine depletion, Rep 3. 0

Given the entry O=C1C=CC(=O)C=C1 [p-Benzoquinone, p-benzoquinone, reference compound] , report its measured % of Cysteine depletion, Rep 3. 72.0
